- Assay system: Glycylpeptide N-tetradecanoyltransferase (Candida albicans (strain SC5314 / ATCC MYA-2876), UniProt P30418)
- Sequence (P30418 whole entry): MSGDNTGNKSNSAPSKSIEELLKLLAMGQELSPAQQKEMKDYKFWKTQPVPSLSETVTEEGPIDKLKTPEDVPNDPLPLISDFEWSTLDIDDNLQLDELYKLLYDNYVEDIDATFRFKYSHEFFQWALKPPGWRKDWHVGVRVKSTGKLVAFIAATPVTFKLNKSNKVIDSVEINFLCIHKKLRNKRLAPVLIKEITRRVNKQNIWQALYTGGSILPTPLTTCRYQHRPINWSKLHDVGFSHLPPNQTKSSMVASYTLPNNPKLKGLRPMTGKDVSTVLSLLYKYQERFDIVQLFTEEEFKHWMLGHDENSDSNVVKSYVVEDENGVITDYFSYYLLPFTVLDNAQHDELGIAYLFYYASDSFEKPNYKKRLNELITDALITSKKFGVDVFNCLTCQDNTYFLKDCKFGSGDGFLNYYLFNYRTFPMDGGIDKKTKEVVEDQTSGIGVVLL
- Test description: The Compound was tested for the inhibition potency against Candida albicans N-myristoyltransferase (NMT) and reported as apparent Ki
Measurement kind: Ki (µM)
Answers are plain numbers, in µM.

[Q] Return value of Ki for input `H-ALYASKLS-NH2` , no commentary.
[A] 15.3

Reference source: BindingDB's records for doi:10.1021/jm980001q
